Provenance of the data: patent US8440666B2

assay target: Human P2X7 (hP2X7) receptor (Homo sapiens)
Construct: myc-His (from the pcDNA3.1/myc-HisA vector); expressed in transfected cells
Sequence (Q99572 whole entry): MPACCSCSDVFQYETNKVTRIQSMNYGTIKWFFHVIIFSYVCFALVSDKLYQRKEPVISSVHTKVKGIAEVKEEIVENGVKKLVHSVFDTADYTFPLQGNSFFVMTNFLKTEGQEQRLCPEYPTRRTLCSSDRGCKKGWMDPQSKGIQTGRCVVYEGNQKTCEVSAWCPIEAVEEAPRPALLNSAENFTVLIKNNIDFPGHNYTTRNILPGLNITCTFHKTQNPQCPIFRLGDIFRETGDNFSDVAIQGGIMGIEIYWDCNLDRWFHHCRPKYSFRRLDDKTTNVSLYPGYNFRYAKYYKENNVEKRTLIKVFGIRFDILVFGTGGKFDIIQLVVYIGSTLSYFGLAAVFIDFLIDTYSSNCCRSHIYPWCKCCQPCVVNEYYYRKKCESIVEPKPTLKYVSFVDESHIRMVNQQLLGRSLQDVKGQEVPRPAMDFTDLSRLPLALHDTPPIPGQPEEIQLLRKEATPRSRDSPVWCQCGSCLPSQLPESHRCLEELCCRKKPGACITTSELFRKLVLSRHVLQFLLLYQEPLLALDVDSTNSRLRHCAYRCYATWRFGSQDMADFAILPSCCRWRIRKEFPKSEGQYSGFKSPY
assay info: Dye assay: BzATP-induced Yo-Pro-1 uptake in HEK293 cells stably expressing hP2X7
Type: cell-based
measurement conditions: BzATP 0.1 mM, Yo-Pro-1 2 μM, 30 min pre-treatment, 90 min incubation
Measured pIC50, listed per entry.
Keep in mind that pIC50 stands for -log10 of concentration in molar terms.

molecule	val
CC(NC(=O)Cn1ncc(N[C@@H]2C[C@@H]3C[C@H]([C@H]2C)C3(C)C)c(Cl)c1=O)c1ccnnc1Cl (some centres unmarked)	8.70
COc1nnccc1C(C)NC(=O)Cn1ncc(N[C@@H]2C[C@@H]3C[C@H]([C@H]2C)C3(C)C)c(Cl)c1=O (some centres unmarked)	8.72
Cc1cnncc1CNC(=O)Cn1ncc(N[C@@H]2C[C@@H]3C[C@H]([C@H]2C)C3(C)C)c(Cl)c1=O	8.68

According to the records, this molecule COc1nnc(Cl)cc1C(C)NC(=O)Cn1ncc(N[C@@H]2C[C@@H]3C[C@H]([C@H]2C)C3(C)C)c(Cl)c1=O (some centres unmarked) displays pIC50 of 8.77

According to the records, this molecule C[C@@H]1[C@H]2C[C@@H](C[C@H]1Nc1cnn(CC(=O)NCc3ccnc(F)c3Cl)c(=O)c1Cl)C2(C)C displays pIC50 of 7.85
